test system: Beagle dogs; test: Hemodynamic effects (blood pressure) in beagle dogs, bolus IV; assay type: in vivo, dog; conditions: 30 mg/kg bolus IV, 4 min after administration
PROPERTY: MAP % change from baseline (%)

COMPOUND: CC[C@@H](C)c1cccc([C@H](C)CC)c1O
ASSAYED_TARGET: Beagle dogs
UNIT_ABBREVIATION: %
RESULT: −41
//
COMPOUND: CC[C@@H](C)c1cccc([C@@H](C)CC)c1O
ASSAYED_TARGET: Beagle dogs
UNIT_ABBREVIATION: %
RESULT: −16
//
COMPOUND: CC[C@H](C)c1cccc([C@@H](C)CC)c1O (single isomer, unassigned) [(S,S)]
ASSAYED_TARGET: Beagle dogs
UNIT_ABBREVIATION: %
RESULT: 0

====

assay: in vivo; details: both, pig, in vivo, iv

MOLECULE: CC(C)c1cccc(C(C)C)c1O [Propofol, 2,6-diisopropylphenol, reference compound]
AUC: 1810 ng·h/mL

====

Items are presented alongside their recorded MAP % change from baseline.
system: Beagle dogs; assay: Hemodynamic effects (blood pressure) in beagle dogs, bolus IV; format: in vivo, dog; details: 15 mg/kg bolus IV, 4 min after administration
PROPERTY: MAP % change from baseline (%)

COMPOUND: CC(C)c1cccc(C(C)C)c1O [Propofol, 2,6-diisopropylphenol, reference compound]
ASSAYED_TARGET: Beagle dogs
PROPERTY: MAP % change from baseline
RESULT: −32

COMPOUND: CC[C@@H](C)c1cccc([C@H](C)CC)c1O [Compound 1]
ASSAYED_TARGET: Beagle dogs
PROPERTY: MAP % change from baseline
RESULT: −25

====

assay: Anesthetic effects in rats, bolus IV, Loss of Righting Reflex (LORR); type: in vivo, rat; conditions: male, Sprague-Dawley, rat, in vivo; bolus IV, rats; read-out: MTD (maximum tolerated dose)
PROPERTY: MTD

MOLECULE: CC[C@@H](C)c1cccc([C@H](C)CC)c1O [Compound 1]
RESULT: 14 mg/kg

MOLECULE: CC[C@H](C)c1cccc([C@@H](C)CC)c1O (single isomer, unassigned) [(S,S)]
RESULT: 42 mg/kg

====

system: Beagle dogs; assay: Hemodynamic effects (blood pressure) in beagle dogs, bolus IV; type: in vivo, dog; settings: 10 mg/kg bolus IV, 4 min after administration

COMPOUND: CC(C)c1cccc(C(C)C)c1O [Propofol, 2,6-diisopropylphenol, reference compound]
MAP % change from baseline: −22%
--
COMPOUND: CC[C@@H](C)c1cccc([C@@H](C)CC)c1O
MAP % change from baseline: +5%
--
COMPOUND: CC[C@H](C)c1cccc([C@@H](C)CC)c1O (single isomer, unassigned) [(S,S)]
MAP % change from baseline: +7%
--
COMPOUND: CC[C@@H](C)c1cccc([C@H](C)CC)c1O
MAP % change from baseline: +11%

====

system: rats; test: Separate rat study, bolus IV, 1% in cremaphor, sleep time; format: in vivo; conditions: 7 mg/kg bolus IV, rats
// reported Sleep Time (duration of anesthesia) for each item listed

COMPOUND: CC[C@@H](C)c1cccc([C@@H](C)CC)c1O
Sleep Time (duration of anesthesia) [min]: 12.7

COMPOUND: CC[C@@H](C)c1cccc([C@H](C)CC)c1O
Sleep Time (duration of anesthesia) [min]: 23

COMPOUND: CC[C@H](C)c1cccc([C@@H](C)CC)c1O (single isomer, unassigned) [(S,S)]
Sleep Time (duration of anesthesia) [min]: 6.3

COMPOUND: CC(C)c1cccc(C(C)C)c1O [Propofol, 2,6-diisopropylphenol, reference compound]
Sleep Time (duration of anesthesia) [min]: 7.1
